# Lookup of reported Ki keyed by entry
molecular target: UniProtKB P36544; experiment: biochemical; assay type: binding; settings: Table 2; read-out: Ki α7
Sequence (P36544 23-502 limits assumed): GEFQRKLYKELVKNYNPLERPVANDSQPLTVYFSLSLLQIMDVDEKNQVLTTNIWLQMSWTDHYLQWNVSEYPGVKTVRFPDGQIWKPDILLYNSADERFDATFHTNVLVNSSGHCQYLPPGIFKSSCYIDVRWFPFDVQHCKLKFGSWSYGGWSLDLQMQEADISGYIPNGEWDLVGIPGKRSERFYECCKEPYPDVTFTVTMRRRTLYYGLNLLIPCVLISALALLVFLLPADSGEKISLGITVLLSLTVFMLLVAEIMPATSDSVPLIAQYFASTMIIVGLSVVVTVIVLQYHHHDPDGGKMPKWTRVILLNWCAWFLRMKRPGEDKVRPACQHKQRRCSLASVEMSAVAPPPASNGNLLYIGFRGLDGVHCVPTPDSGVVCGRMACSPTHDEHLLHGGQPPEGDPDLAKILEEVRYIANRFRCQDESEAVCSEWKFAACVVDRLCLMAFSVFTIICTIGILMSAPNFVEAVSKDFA
measurement-name: Ki (nM)

compound: c1cncc(C[C@H]2[C@H](Oc3ccc(-c4ccc5[nH]ccc5c4)nn3)C3CCN2CC3)c1
unit-of-measure: nM
numeric-value: 1

compound: Nc1nc2ccc(-c3ccc(OC4C5CCN(CC5)C4Cc4cccnc4)nn3)cc2s1 (stereo not drawn)
unit-of-measure: nM
numeric-value: 18.8

compound: c1cncc(C[C@@H]2[C@@H](Oc3ccc(-c4ccc5[nH]ccc5c4)nn3)C3CCN2CC3)c1
unit-of-measure: nM
numeric-value: 34

* * *

biological target: α3β4 nAChR (Homo sapiens (Human), UniProt P30926+P32297); assay: nAChR binding affinity, α3β4 subtype; conditions: Table 2
Sequence (P32297 32-505): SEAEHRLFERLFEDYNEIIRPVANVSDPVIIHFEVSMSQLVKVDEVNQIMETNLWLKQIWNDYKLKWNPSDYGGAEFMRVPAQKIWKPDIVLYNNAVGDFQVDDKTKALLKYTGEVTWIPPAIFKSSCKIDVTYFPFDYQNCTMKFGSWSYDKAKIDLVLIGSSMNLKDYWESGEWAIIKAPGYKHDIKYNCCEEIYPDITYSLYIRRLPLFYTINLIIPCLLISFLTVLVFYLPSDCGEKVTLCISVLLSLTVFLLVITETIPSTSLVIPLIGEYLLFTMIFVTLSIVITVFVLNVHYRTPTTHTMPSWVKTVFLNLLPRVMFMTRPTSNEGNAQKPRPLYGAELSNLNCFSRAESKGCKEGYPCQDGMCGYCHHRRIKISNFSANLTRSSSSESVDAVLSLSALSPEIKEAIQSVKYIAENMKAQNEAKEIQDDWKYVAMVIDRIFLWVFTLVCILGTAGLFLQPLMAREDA
Sequence (P30926 22-498): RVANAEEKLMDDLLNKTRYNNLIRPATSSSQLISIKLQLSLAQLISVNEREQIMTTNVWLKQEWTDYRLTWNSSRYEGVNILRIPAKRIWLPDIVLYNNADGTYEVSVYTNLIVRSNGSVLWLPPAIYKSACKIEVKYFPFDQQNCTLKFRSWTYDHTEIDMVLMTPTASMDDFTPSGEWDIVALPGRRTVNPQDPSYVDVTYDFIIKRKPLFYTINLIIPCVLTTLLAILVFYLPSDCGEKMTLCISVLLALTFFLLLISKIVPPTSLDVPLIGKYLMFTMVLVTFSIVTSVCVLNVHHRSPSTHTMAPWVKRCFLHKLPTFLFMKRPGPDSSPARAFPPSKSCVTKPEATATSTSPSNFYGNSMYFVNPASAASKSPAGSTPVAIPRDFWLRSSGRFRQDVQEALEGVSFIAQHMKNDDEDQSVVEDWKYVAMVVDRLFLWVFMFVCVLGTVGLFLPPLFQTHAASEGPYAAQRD
pKi: −log10 of the molar value.
# Lookup of reported pKi keyed by entry
measurement-name: pKi

compound: c1cncc(C[C@@H]2[C@H](Oc3ccc(-c4ccc5[nH]ccc5c4)nn3)C3CCN2CC3)c1 (relative stereo)
numeric-value: 6.70
--
compound: c1cncc(C[C@@H]2[C@@H](Oc3cnc(-c4ccc5[nH]ccc5c4)cn3)C3CCN2CC3)c1 (relative stereo)
numeric-value: 6.40
--
compound: c1cncc(C[C@@H]2[C@@H](Oc3ccc(-c4ccc5[nH]ccc5c4)nn3)C3CCN2CC3)c1
numeric-value: 5.92
--
compound: c1cncc(C[C@H]2[C@H](Oc3ccc(-c4ccc5[nH]ccc5c4)nn3)C3CCN2CC3)c1
numeric-value: 6.11
--
compound: c1cncc(C[C@@H]2[C@@H](Oc3nnc(-c4ccc5[nH]ccc5c4)s3)C3CCN2CC3)c1 (racemic)
numeric-value: 6.36
--
compound: Nc1nc2ccc(-c3ccc(OC4C5CCN(CC5)C4Cc4cccnc4)nn3)cc2s1 (stereo not drawn)
numeric-value: 5.97

* * *

target: UniProt:P36544; assay: biochemical; type: binding
pKi: −log10 of the molar value.
# Lookup of reported pKi keyed by entry

compound: c1ccc(-c2nnc(O[C@H]3C4CCN(CC4)[C@@H]3Cc3cccnc3)s2)cc1 (racemic) [Compound 20]
pKi: 6.49

compound: c1cncc(C[C@@H]2[C@@H](Oc3ccc(-c4ccc5[nH]ccc5c4)nn3)C3CCN2CC3)c1 (racemic) [Compound 11]
pKi: 8.85

compound: c1cncc(C[C@@H]2[C@@H](Oc3ccc(-c4ccc5[nH]ccc5c4)nn3)C3CCN2CC3)c1 [Compound 11]
pKi: 9.00

compound: c1cncc(C[C@@H]2[C@@H](Oc3ccc(-c4ccc5[nH]ccc5c4)cn3)C3CCN2CC3)c1
pKi: 7.24

* * *

biological target: UniProt:P36544; assay: biochemical; assay type: binding
pKi: −log10 of the molar value.
# Lookup of reported pKi keyed by entry
measurement-name: pKi

compound: c1cncc(C[C@@H]2[C@@H](Oc3ccc4ccccc4n3)C3CCN2CC3)c1 (relative stereo) [Compound 18]
measurement-name: pKi
numeric-value: 5.53

compound: c1cncc(C[C@@H]2[C@H](Oc3ccc(-c4ccc5[nH]ccc5c4)nn3)C3CCN2CC3)c1 (relative stereo) [Compound 7]
measurement-name: pKi
numeric-value: 7.23

compound: c1ccc(-c2nnc(O[C@H]3C4CCN(CC4)[C@@H]3Cc3cccnc3)s2)cc1 (relative stereo) [Compound 20]
measurement-name: pKi
numeric-value: 6.49

compound: c1ccc(-c2ccc(O[C@H]3C4CCN(CC4)[C@@H]3Cc3cccnc3)nn2)cc1 (relative stereo) [Compound 19]
measurement-name: pKi
numeric-value: 7.00

compound: c1cncc(C[C@@H]2[C@@H](Oc3cnc(-c4ccc5[nH]ccc5c4)cn3)C3CCN2CC3)c1 (racemic) [Compound 9]
measurement-name: pKi
numeric-value: 6.62
